Molecular target: Voltage-gated inwardly rectifying potassium channel KCNH2 (Homo sapiens) (UniProt Q12809)
Sequence (Q12809 whole entry, looked up): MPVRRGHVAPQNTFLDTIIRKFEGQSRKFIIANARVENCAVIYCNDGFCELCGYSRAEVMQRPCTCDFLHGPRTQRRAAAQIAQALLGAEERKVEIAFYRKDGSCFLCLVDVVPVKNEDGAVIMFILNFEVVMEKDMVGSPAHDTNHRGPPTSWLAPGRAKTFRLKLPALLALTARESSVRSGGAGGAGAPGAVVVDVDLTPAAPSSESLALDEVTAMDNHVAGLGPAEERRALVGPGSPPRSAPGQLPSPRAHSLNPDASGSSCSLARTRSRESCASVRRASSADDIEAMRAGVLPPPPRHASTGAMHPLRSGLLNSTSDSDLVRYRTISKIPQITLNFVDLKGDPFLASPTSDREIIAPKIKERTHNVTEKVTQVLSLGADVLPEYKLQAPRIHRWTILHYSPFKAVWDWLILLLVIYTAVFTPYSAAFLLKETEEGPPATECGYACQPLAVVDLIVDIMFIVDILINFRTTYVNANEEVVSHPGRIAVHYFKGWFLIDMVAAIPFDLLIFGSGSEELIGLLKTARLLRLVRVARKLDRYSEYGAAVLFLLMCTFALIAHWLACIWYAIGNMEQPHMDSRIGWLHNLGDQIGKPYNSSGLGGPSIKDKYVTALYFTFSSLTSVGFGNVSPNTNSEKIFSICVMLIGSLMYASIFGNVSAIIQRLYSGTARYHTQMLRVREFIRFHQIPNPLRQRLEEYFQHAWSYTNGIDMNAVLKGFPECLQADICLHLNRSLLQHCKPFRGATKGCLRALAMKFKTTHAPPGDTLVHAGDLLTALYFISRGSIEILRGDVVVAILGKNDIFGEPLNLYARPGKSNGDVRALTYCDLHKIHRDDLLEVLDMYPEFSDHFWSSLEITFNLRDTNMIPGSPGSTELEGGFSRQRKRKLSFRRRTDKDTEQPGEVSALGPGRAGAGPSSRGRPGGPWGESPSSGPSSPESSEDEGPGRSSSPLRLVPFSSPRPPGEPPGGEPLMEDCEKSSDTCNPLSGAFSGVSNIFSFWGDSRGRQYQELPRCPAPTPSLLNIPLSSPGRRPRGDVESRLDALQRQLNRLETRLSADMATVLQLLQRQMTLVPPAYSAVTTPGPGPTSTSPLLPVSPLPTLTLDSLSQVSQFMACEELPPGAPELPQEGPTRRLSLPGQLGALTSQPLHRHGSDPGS
Assay: KCNH2 potassium channel function modulators, cell-based (AID 376);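 further: 0% = buffer alone and 100% = reference blocker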
Conditions: hERG-expressing cells, channel activity single-concentration screen; concentration not given here
The whole screen tested about 2,000 compounds, of which about 250 (12%) were called active. The list comes from a sample in which actives are over-represented; it also holds close analogues and randomly drawn compounds.
Each entry below lists one item and its recorded hERG blockade value.
Give the quantity in %, number only.

Below, each entry is followed by its recorded hERG blockade result.
NC(=O)NC(=O)C1CCCCC1C(=O)O (configuration not stated) :: -24.9
NNC(=O)c1ccc(OCc2nc3ccccc3[nH]2)cc1 :: 0.772
O=C(O)CC(Cc1ccccc1)C(=O)O (configuration not stated) :: 6.37
Clc1cc2c(c(CSC3=NCN(CC4CC4)CN3)c1)OCOC2 :: 8.37
CSc1ccc(NC(=O)C2CCCCC2C(=O)O)cc1 (configuration not stated) :: 10.7
c1ccc(CCN2CCN=C2Cc2ccccc2)cc1 :: 11.4

Kindly note the recorded hERG blockade for Nc1nc(-c2cc(-c3cccc4ccccc34)nc(N)n2)cc(-c2cccc3ccccc23)n1 , which is 3.59

Note to self: hERG blockade recorded for O=C(CSc1nc2ccccc2s1)c1sc2sc3ccccc3[n+]2c1O was 1.71

Per the record, NCC(=O)Nc1ccccc1 has hERG blockade of 5.81

Memo: CSc1nnnc2ccccc12 , reported hERG blockade: 8.81

The molecule listed as Nc1cc2c(nc3c4ccccc4c(N)cc3[n+]2-c2cccc3ccccc23)c2ccccc12 (tested in a mixture with another compound) has a reported hERG blockade of 51.9

What the record says about c1ccc2c(CN3CCN(Cc4c[nH]c5ccccc45)CC3)c[nH]c2c1 : hERG blockade is -0.497

* * *

Target: Voltage-gated inwardly rectifying potassium channel KCNH2 (Homo sapiens) (UniProt Q12809)
Assay: KCNH2 potassium channel function modulators, cell-based (AID 376);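 further: 0% = buffer alone and 100% = reference blocker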
Conditions: hERG-expressing cells, channel activity single-concentration screen; concentration not given here
In all, about 2,000 compounds went through this assay and about 250 (12%) were called active. No stated cut-off is given here; in the data, active means hERG blockade below about -20% or above about 20%; inactive means in between. Shown is part of a subset that was picked to be rich in actives.
The reply should be one of these categories: true (1) = active, false (0) = inactive

Reference set (5 entries):
Cc1ccc(S(=O)(=O)NC(CO)C(=O)O)cc1 (stereo not given) :: true (1)
O=c1c[n+](CCCC[n+]2cc(=O)o[nH]2)[nH]o1 :: false (0)
c1ccc(-c2nnn(CCN3CCCCC3)n2)cc1 :: false (0)
S=C1NC(c2ccccc2)NC(c2ccccc2)S1 (stereo not given) :: false (0)
Cc1ccc(S(=O)(=O)NC(C(=O)O)C(C)C)cc1 (stereo not given) :: false (0)

In this assay, the call recorded for CC1(C)OCC(C2OC(On3nnc4ccc(Cl)cc43)C3OC(C)(C)OC23)O1 (stereo not given) was what?
false (0)

* * *

Biological target: Voltage-gated inwardly rectifying potassium channel KCNH2 (Homo sapiens) (UniProt Q12809)
Experiment: KCNH2 potassium channel function modulators, cell-based (AID 376);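 further: 0% = buffer alone and 100% = reference blocker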
Settings: hERG-expressing cells, channel activity single-concentration screen; concentration not given here
Hit rate of the full screen: of about 2,000 compounds, about 250 (12%) were called active. No stated cut-off is given here; in the data, active means hERG blockade below about -20% or above about 20%; inactive means in between. The entries come from a sample that favours actives as a whole.
The categories you may choose from are yes (1) = active, no (0) = inactive

CC(CCC(=O)O)C1CCC2C3C(O)CC4CC(O)CCC4(C)C3CC(O)C12C (stereo unspecified) :: no (0)
Cn1c(=O)c2c(nc(Cc3ccccc3)n2CC(=O)O)n(C)c1=O :: no (0)
O=C(O)CCc1nc(-c2ccccc2-n2cccc2)no1 :: no (0)
O=[N+]([O-])c1ccc2c(c1)S(=O)c1ccccc1-2 (stereo unspecified) :: no (0)
O=C(O)c1ccc(Oc2nc3ccccc3s2)cc1 :: no (0)

Now, please, on to the next compound.
Hi, sorry to bother you, what did the test record for C[N+](C)(C)c1cc2c(nn1)Nc1ccccc1S2 ?
yes (1)
